# tested.system: human DP2 (Homo sapiens (Human))
# protocol: DP-2 Binding Inhibition Assay (3H-PGD2 binding to membranes of K562 cells expressing DP2)
# setup.conditions: read-out: EC50 (nM) 4% HSA; inhibition of 3H-PGD2 binding, 4% HSA
# Description: DP-2 Binding Inhibition Assay The coding sequence of human DP2 was introduced into the human Leukemic cell line K562 by electroporation and stable clones expressing DP2 were obtained by limiting dilution followed by cell surface staining with a rat monoclonal antibody specific for human DP2. […] Radioactivity was measured by a scintillation counter (TopCount; PerkinElmer Life Sciences, Boston, Mass.). […]
measure: EC50 (nM)

A: O=C(NC1CCN(c2cccc(Cl)c2)CC1)c1ccc(Oc2cc3c(cc2Cl)C(C(=O)O)CCO3)cc1 (stereo not shown)
B: O=C(NCCc1ccccc1C1CC1)c1ccc(Oc2cc3c(cc2Cl)C(C(=O)O)CCO3)cc1 (stereo not shown)
C: COc1ccc(CCNC(=O)c2ccc(Oc3cc4c(cc3Cl)C(C(=O)O)CCO4)cc2)c(Cl)c1 (stereo not shown)
D: O=C(NCCc1ccc(Cl)cc1)c1ccc(Oc2c(C3CC3)cc3c(c2C2CC2)OCCC3C(=O)O)cc1 (stereo not shown)
Sort the listed entries by EC50, smallest first. Returns: the labels listed in the requested order.
D, B, A, C
(D: 68.2 nM, B: 107 nM, A: 371 nM, C: 619 nM)

====

# tested.system: human DP2 (Homo sapiens (Human))
# protocol: DP-2 Binding Inhibition Assay (3H-PGD2 binding to membranes of K562 cells expressing DP2)
# setup.conditions: read-out: EC50 (Nm) 1% HSA; inhibition of 3H-PGD2 binding, 1% HSA
pEC50: −log10 of the molar value.
measure: pEC50

Illustrative cases are given below, each with its answer.
compound="N#Cc1cc2c(cc1Oc1ccc(C(=O)NOCc3ccc(Cl)cc3)cc1)OCCC2C(=O)O (stereo not drawn)" measure=pEC50 observed_value=7.72
compound="N#Cc1cc2c(cc1Oc1ccc(C(=O)NC3COc4ccccc4C3)cc1)OCCC2C(=O)O (stereo not drawn)" measure=pEC50 observed_value=7.04

a: O=C(NCCc1ccc(Cl)cc1)c1ccc(Oc2cc3c(cc2Cl)C(C(=O)O)CCO3)c([N+](=O)[O-])c1 (stereo not drawn)
b: O=C(NCCc1ccc(Cl)cc1)c1ccc(Oc2cc3c(cc2Cl)C(C(=O)O)CCO3)cc1 (stereo not drawn)
a or b : whose pEC50 is greater? Response format: the label of the selected entry.
b
(b: 7.86, a: 6.69)

A: N#Cc1cc2c(cc1Oc1ccc(C(=O)NC3CCc4ccccc4C3)cc1)OCCC2C(=O)O (stereo not drawn)
B: N#Cc1cc2c(cc1Oc1ccc(C(=O)Nc3ccc(Cl)c(Cl)c3)cc1)OCCC2C(=O)O (stereo not drawn)
Hi there, can you help? I need to know whether A or B has lower measured pEC50. Response format: the label of the selected entry.
A

====

# tested.system: UniProt Q9Y5Y4
# protocol: DP-2 Binding Inhibition Assay (3H-PGD2 binding to membranes of K562 cells expressing DP2)
# setup.conditions: read-out: EC50 (nM) 4% HSA; inhibition of 3H-PGD2 binding, 4% HSA
measure: EC50 (nM)

molecule="O=C(NCCOc1ccccc1Cl)c1ccc(Oc2cc3c(cc2Cl)C(C(=O)O)CCO3)cc1 (stereo not drawn)" measure=EC50 measurement_units=nM observed_value=2440
molecule="O=C(NCC1CCc2cc(Cl)ccc21)c1ccc(Oc2cc3c(cc2Cl)C(C(=O)O)CCO3)cc1 (stereo not drawn)" measure=EC50 measurement_units=nM observed_value=225
molecule="CC(C)Oc1cc(Cl)ccc1CCNC(=O)c1ccc(Oc2cc3c(cc2Cl)C(C(=O)O)CCO3)cc1 (stereo not drawn)" measure=EC50 measurement_units=nM observed_value=71.6
molecule="O=C(NCCc1ccc(C(F)(F)F)cc1Cl)c1ccc(Oc2cc3c(cc2Cl)C(C(=O)O)CCO3)cc1 (stereo not drawn)" measure=EC50 measurement_units=nM observed_value=193
molecule="N#Cc1cc2c(cc1Oc1ccc(C(=O)NC3CC3c3ccc(Cl)cc3)cc1)OCCC2C(=O)O (stereo not drawn)" measure=EC50 measurement_units=nM observed_value=14.8

I: CCOc1ccc(CCNC(=O)c2ccc(Oc3cc4c(cc3Cl)C(C(=O)O)CCO4)cc2)c(OCC)c1 (stereo not drawn)
II: O=C(NC(CO)Cc1ccc(Cl)cc1)c1ccc(Oc2cc3c(cc2Cl)C(C(=O)O)CCO3)cc1 (stereo not drawn)
III: O=C(NCCCCc1ccc(Cl)cc1)c1ccc(Oc2cc3c(cc2Cl)C(C(=O)O)CCO3)cc1 (stereo not drawn)
IV: O=C(NCCc1ccc(Cl)cc1Br)c1ccc(Oc2cc3c(cc2Cl)C(C(=O)O)CCO3)cc1 (stereo not drawn)
Arrange the 4 molecules from largest to smallest EC50. Returns: the labels listed in the requested order.
II, III, IV, I

====

# tested.system: human DP2 (Homo sapiens (Human), UniProt Q9Y5Y4)
# Sequence (Q9Y5Y4 whole entry): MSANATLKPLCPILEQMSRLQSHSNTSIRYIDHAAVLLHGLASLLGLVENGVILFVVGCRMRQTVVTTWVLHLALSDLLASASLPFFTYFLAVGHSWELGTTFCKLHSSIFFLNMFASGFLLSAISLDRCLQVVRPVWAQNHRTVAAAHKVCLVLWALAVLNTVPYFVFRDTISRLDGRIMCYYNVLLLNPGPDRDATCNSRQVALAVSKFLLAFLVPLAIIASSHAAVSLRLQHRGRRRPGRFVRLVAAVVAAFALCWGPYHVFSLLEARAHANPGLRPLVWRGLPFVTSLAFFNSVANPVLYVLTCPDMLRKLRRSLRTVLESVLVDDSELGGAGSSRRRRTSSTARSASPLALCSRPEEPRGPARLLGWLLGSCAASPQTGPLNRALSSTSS
# protocol: DP-2 Binding Inhibition Assay (3H-PGD2 binding to membranes of K562 cells expressing DP2)
# setup.conditions: read-out: EC50 (nM) 4% HSA; inhibition of 3H-PGD2 binding, 4% HSA
measure: EC50 (nM)

Illustrative cases are given below, each with its answer.
compound="O=C(NCCc1ccc2c(c1)OCO2)c1ccc(Oc2cc3c(cc2Cl)C(C(=O)O)CCO3)cc1 (stereo not shown)" observed_value=607
compound="Cc1ccc(C2CCCC(NC(=O)c3ccc(Oc4cc5c(cc4Cl)C(C(=O)O)CCO5)cc3)C2)cc1 (stereo not shown)" observed_value=350
compound="N#Cc1cc2c(cc1Oc1ccc(C(=O)Nc3ccc(-c4ccccc4)cc3)cc1)OCCC2C(=O)O (stereo not shown)" observed_value=206

I: N#Cc1cc2c(cc1Oc1ccc(C(=O)NCC3Cc4ccccc4C3)cc1)OCCC2C(=O)O (stereo not shown)
II: O=C(NC1CCN(c2cccc(C(F)(F)F)c2)CC1)c1ccc(Oc2cc3c(cc2Cl)C(C(=O)O)CCO3)cc1 (stereo not shown)
Hi there, can you help? I need to know whether I or II has lower measured EC50. Response format: the label of the selected entry.
I
(I: 179 nM, II: 259 nM)

A: CCOc1ccc(CCNC(=O)c2ccc(Oc3cc4c(cc3Cl)C(C(=O)O)CCO4)cc2)c(OC)c1 (stereo not shown)
B: O=C(NCCc1cccc(Cl)c1Cl)c1ccc(Oc2cc3c(cc2Cl)C(C(=O)O)CCO3)cc1 (stereo not shown)
A or B : whose EC50 is greater? Response format: the label of the selected entry.
B
(B: 226 nM, A: 74.5 nM)

1: Cc1cccc(-c2cccc(NC(=O)c3ccc(Oc4cc5c(cc4C#N)C(C(=O)O)CCO5)cc3)c2)c1 (stereo not shown)
2: O=C(NCCc1ccc(Cl)cc1)c1ccc(Oc2ccc3c(c2)OCCC3C(=O)O)cc1 (stereo not shown)
Hi there, can you help? I need to know whether 1 or 2 has lower measured EC50. Response format: the label of the selected entry.
1

====

# tested.system: human DP2 (Homo sapiens (Human))
# protocol: DP-2 Binding Inhibition Assay (3H-PGD2 binding to membranes of K562 cells expressing DP2)
# setup.conditions: read-out: EC50 (nM) 4% HSA; inhibition of 3H-PGD2 binding, 4% HSA
measure: EC50 (nM)

I: Cc1cccc(C2CCC(NC(=O)c3ccc(Oc4cc5c(cc4Cl)C(C(=O)O)CCO5)cc3)C2)c1 (stereo not shown)
II: CC(C)(C)c1cccc(NC(=O)c2ccc(Oc3cc4c(cc3C#N)C(C(=O)O)CCO4)cc2)c1 (stereo not shown)
III: O=C(NCCc1ccc(C2CC2)cc1)c1ccc(Oc2cc3c(cc2Cl)C(C(=O)O)CCO3)cc1 (stereo not shown)
Quick favor: sort the molecules up above by EC50, largest first. Returns: the labels listed in the requested order.
III, I, II

I: O=C(NCCc1cc(F)ccc1Oc1ccc(Cl)c(Cl)c1)c1ccc(Oc2cc3c(cc2Cl)C(C(=O)O)CCO3)cc1 (stereo not shown)
II: O=C(NCCSc1ccc(Cl)cc1)c1ccc(Oc2cc3c(cc2Cl)C(C(=O)O)CCO3)cc1 (stereo not shown)
I or II : whose EC50 is greater? Response format: the label of the selected entry.
II

====

# tested.system: human DP2 (Homo sapiens (Human), UniProt Q9Y5Y4)
# protocol: DP-2 Binding Inhibition Assay (3H-PGD2 binding to membranes of K562 cells expressing DP2)
# setup.conditions: read-out: EC50 (nM) 4% HSA; inhibition of 3H-PGD2 binding, 4% HSA
measure: EC50 (nM)

Illustrative cases are given below, each with its answer.
molecule="Cc1cc(Cl)ccc1CCNC(=O)c1ccc(Oc2cc3c(cc2Cl)C(C(=O)O)CCO3)cc1 (stereo not drawn)" measure=EC50 measurement_units=nM observed_value=216
molecule="O=C(NCCc1ccc(Cl)cc1Cl)c1ccc(Oc2cc3c(cc2C2CC2)C(C(=O)O)CCO3)cc1 (stereo not drawn)" measure=EC50 measurement_units=nM observed_value=73.8
molecule="COc1cc(Cl)c(CCNC(=O)c2ccc(Oc3cc4c(cc3Cl)C(C(=O)O)CCO4)cc2)c(OC)c1 (stereo not drawn)" measure=EC50 measurement_units=nM observed_value=88.5
molecule="O=C(NCCCCc1ccccc1)c1ccc(Oc2cc3c(cc2Cl)C(C(=O)O)CCO3)cc1 (stereo not drawn)" measure=EC50 measurement_units=nM observed_value=405
molecule="Cc1ccc(-c2cccc(NC(=O)c3ccc(Oc4cc5c(cc4C#N)C(C(=O)O)CCO5)cc3)c2)cc1C (stereo not drawn)" measure=EC50 measurement_units=nM observed_value=68.2

P: Cc1cc(C(=O)NCCc2ccc(Cl)cc2)ccc1Oc1cc2c(cc1Cl)C(C(=O)O)CCO2 (stereo not drawn)
Q: O=C(NCCc1cccc2ccccc12)c1ccc(Oc2cc3c(cc2Cl)C(C(=O)O)CCO3)cc1 (stereo not drawn)
Hi there, can you help? I need to know whether P or Q has lower measured EC50. Response format: the label of the selected entry.
Q

1: O=C(NCCc1ccccc1Oc1ccccc1)c1ccc(Oc2cc3c(cc2Cl)C(C(=O)O)CCO3)cc1 (stereo not drawn)
2: O=C(NC1CCN(c2ccc(Cl)cc2Cl)CC1)c1ccc(Oc2cc3c(cc2Cl)C(C(=O)O)CCO3)cc1 (stereo not drawn)
1 or 2 : whose EC50 is greater? Response format: the label of the selected entry.
2
